# Test system: KM12 colon
# experimental-details: NCI tumour cell line growth inhibition, 48 h
Would you kindly list TGI for each of these molecules?

# count of solved cases: 3
query: Quick one: TGI for CN(C)c1ccc(/C=N/NC(=O)c2cccc3ccccc23)c(Cl)c1 ?
result: > 100 µM

query: Quick one: TGI for CN(C)Cc1cc(C(=O)/C=C/c2ccc(F)cc2)cc(CN(C)C)c1O ?
result: 48.9 µM

query: Quick one: TGI for CC12CCC(O)CC1=CCC1C2CCC2(C)C(c3cccnc3)=CCC12 (stereo not given) ?
result: > 100 µM

I have 6 molecules here; please give me TGI for each one.
1. Oc1ccccc1-c1nn2c(CCCCCCCCc3nnc4sc(-c5ccccc5O)nn34)nnc2s1
2. O=C(Sc1sc(=S)sc1SC(=O)c1ccccc1)c1ccccc1
3. C[n+]1c(/C=C/c2ccc(/C=N/NC(=O)c3ccc(C(=O)N/N=C/c4ccc(/C=C/c5cn6ccccc6[n+]5C)cc4)cc3)cc2)cn2ccccc21
4. CCN(CC)CCNC(=O)c1nn(-c2ccc(Cl)cc2)c2c1CCc1cc(OC)ccc1-2
5. Cc1c(N=NN(C)C)cc[n+]([O-])c1C
6. CCN(CC)c1ccc(/C=C/C=C(/C#N)C(N)=S)cc1

result:
1. > 100 µM
2. > 100 µM
3. > 100 µM
4. 19.5 µM
5. > 100 µM
6. > 100 µM

I have 2 molecules here; please give me TGI for each one.
1. CSc1nc(N)c2c(n1)NC(c1ccccc1)C1CCc3ccccc3C1=N2 (stereo not given)
2. Cn1c(C(C)(C)OC(=O)Oc2ccccc2)cnc1[N+](=O)[O-]

result:
["> 100 µM", "> 100 µM"]

* * *

# Test system: BT-549 breast
# experimental-details: NCI tumour cell line growth inhibition, 48 h
measurement-kind: TGI

# count of solved cases: 5
query: Quick one: TGI for Cn1c(C(C)(C)OC(=O)Oc2ccccc2)cnc1[N+](=O)[O-] ?
result: > 100 µM

query: Quick one: TGI for Cc1cc2c(=O)[nH]c(N)nc2nc1C ?
result: > 100 µM

query: Quick one: TGI for Cc1cc(C)c2c(=O)cc(-c3ccc4ccccc4c3)[nH]c2n1 ?
result: > 100 µM

query: Quick one: TGI for CCN(Cc1cccc(F)c1F)c1ccc(CO)c(Cl)c1 ?
result: 35.9 µM

query: Quick one: TGI for CCn1c(=O)c2c3cc(OC(C)=O)ccc3oc2c2ccc(OC(C)=O)cc21 ?
result: > 100 µM

I have 5 molecules here; please give me TGI for each one.
1. CCN1C(=O)N(CC)C2C1NN=c1s/c(=C\c3cccc([N+](=O)[O-])c3)c(=O)n12 (configuration not stated)
2. CC(=O)OC(=C(C#N)C#N)c1nccnc1C(C)=O
3. CC(=O)c1cccc(NC(=O)c2ccc(NC3=C(Cl)C(=O)N(Cc4ccccc4)C3=O)cc2)c1
4. Oc1c(CNCCNCc2cc(Cl)cc(Cc3ccccc3)c2O)cc(Cl)cc1Cc1ccccc1
5. CC12CCC(O)CC1=CCC1C2CCC2(C)C(c3cccnc3)=CCC12 (configuration not stated)

result:
1: 33.5 µM; 2: > 20 µM; 3: 27.9 µM; 4: 28 µM; 5: > 100 µM

* * *

# Tested on: HCT-15 colon
# experimental-details: NCI tumour cell line growth inhibition, 48 h
Would you kindly list TGI for each of these compounds?

# count of solved cases: 5
query: Quick one: TGI for Cc1cc(O)cc(C)c1/C=C/c1cncc(C(=O)OC(C)(C)C)c1 ?
result: > 25 µM

query: Quick one: TGI for CC(=O)N(C(C)=O)n1nc2c(n1)C(=O)c1ccccc1C2=O ?
result: > 100 µM

query: Quick one: TGI for CSc1nc(N)c2c(n1)NC(c1ccccc1)C1CCc3ccccc3C1=N2 (stereo not given) ?
result: > 100 µM

query: Quick one: TGI for CCOP(C)(=O)/C(Cc1ccc(OC)c(OC)c1)=N\O (stereo not given) ?
result: > 100 µM

query: Quick one: TGI for NC(=O)C1N=NSC1NC(=O)c1ccc([N+](=O)[O-])cc1 (stereo not given) ?
result: > 100 µM

I have 5 compounds here; please give me TGI for each one.
1. Cc1cc2c(cc1C)[n+](Cc1ccc3ccccc3n1)cn2Cc1ccc2ccccc2n1
2. O=C1CSC(C(N=Nc2ccc(Cl)cc2)c2nc3ccccc3[nH]2)=N1 (stereo not given)
3. CC(=O)OCCOCCN1CCN(c2c(O)c3c(c(O)c2Cl)C(=O)C=CC3=O)CC1
4. COc1ccc(/C=C(/c2ccccc2)c2c(C)cc(C)c(/C(=C\c3ccc(OC)cc3)c3ccccc3)c2N=Nc2cc(C)cc(C)c2)cc1
5. CC(C)(C)OC(=O)NCCCCCCCCCCn1c2c(c3ccccc3c1=O)C(=O)c1ccccc1-2

result:
1: 11.4 µM; 2: > 100 µM; 3: 1.23 µM; 4: > 100 µM; 5: > 100 µM

* * *

# Tested on: DMS 114 small cell lung
# experimental-details: NCI tumour cell line growth inhibition, 48 h
Would you kindly list TGI for each of these compounds?

# count of solved cases: 8
query: Quick one: TGI for Cn1c(=O)c2nc(NCCO)cnc2n(C)c1=O ?
result: > 100 µM

query: Quick one: TGI for Cc1cc(C)c(C(=O)/C=C/c2ccccc2)c(C)c1 ?
result: 88.3 µM

query: Quick one: TGI for Cc1cc(NS(=O)(=O)c2ccc(NC(=O)COC(=O)c3cccc4c(=O)c5ccccc5[nH]c34)cc2)no1 ?
result: > 100 µM

query: Quick one: TGI for C[C@@](O)(/C=C/[C@H]1CC=CC(=O)O1)[C@@H](C[C@@H](O)\C=C/C=C\C=C\CO)OP(=O)(O)O ?
result: 82.6 µM

query: Quick one: TGI for CCCCc1c2c(nc3c1CC/C(=C\c1ccc([N+](=O)[O-])cc1)C3=O)CCCC2 ?
result: 4.4 µM

query: Quick one: TGI for CC1=C/C(=C2/N=C(N(C)C)SS2)C(C)=N1 ?
result: > 100 µM

query: Quick one: TGI for Cc1c(N=NN(C)C)cc[n+]([O-])c1C ?
result: > 100 µM

query: Quick one: TGI for Cc1cc2c(=O)cc(-c3ccc(F)cc3)oc2c(C(=O)O)c1C ?
result: > 100 µM

I have 7 compounds here; please give me TGI for each one.
1. COc1ccc(-c2nc3c(nc2-c2ccc(OC)cc2)N(C)S(=O)(=O)N=C3N)cc1
2. CCOP(=O)(CC(=O)C1=C(O)C(CCCCNC(=O)OC(C)(C)C)N(Cc2ccccc2)C1=O)OCC (configuration not stated)
3. COc1cc2c(cc1OC)[C@@H]([C@H](O)c1ccccc1)NCC2
4. CCCCS(=O)CC(CO)NC(=O)/C=C/c1c(C)[nH]c(=O)[nH]c1=O (configuration not stated)
5. CN1C(=O)C(=CN(C)c2ccccc2)C(=O)N(C)C1=O
6. COC(=O)C(=O)C(CC(=O)Nc1cccc(C(F)(F)F)c1)C(=O)OC (configuration not stated)
7. COC(=O)C1C(O)C(C)C(O)OC1C(C)C(O)C(C)/C=C\C=C(/C)C(=O)Nc1c(C)c(OC(C)=O)c2c(c1O)C(=O)C(C)=C1OCOC(/C(C)=C/C(C)=O)=C12 (configuration not stated)

result:
["72.7 µM", "> 100 µM", "> 100 µM", "25.1 µM", "> 100 µM", "> 100 µM", "27.5 µM"]

I have 2 compounds here; please give me TGI for each one.
1. O=C(CC1C(=O)Nc2ccccc2S1(=O)=O)Nc1cccc(Cl)c1 (configuration not stated)
2. CCN(CC)CCC(=O)/C=C/c1ccc(C)cc1

result:
30.6 µM
24.4 µM

* * *

# Test system: HOP-62 NSCLC
# experimental-details: NCI tumour cell line growth inhibition, 48 h
measurement-kind: TGI

# count of solved cases: 2
query: // map N=C(N)SCc1ccc([N+](=O)[O-])cc1[N+](=O)[O-] to recorded TGI (system: HOP-62 NSCLC)
result: 79.1 µM

query: // map O=[N+]([O-])c1ccc(COc2cccc3cccnc23)cc1 to recorded TGI (system: HOP-62 NSCLC)
result: > 100 µM

I have 5 compounds here; please give me TGI for each one.
1. COC1=CC(=O)NCCN1
2. Oc1c(CNCCNCc2cc(Cl)cc(Cc3ccccc3)c2O)cc(Cl)cc1Cc1ccccc1
3. O=C1C2CC=CCC2C(=O)N1n1c(Cc2ccccc2)n[nH]c1=O (centres undefined)
4. CC1(C)N=C(N)N=C(N)N1c1ccc(Cl)c(Cl)c1
5. Cc1cc(C)c(C(=O)/C=C/c2ccccc2)c(C)c1

result:
1. > 100 µM
2. 47.3 µM
3. > 100 µM
4. > 100 µM
5. 76 µM

I have 8 compounds here; please give me TGI for each one.
1. Nc1nc(-c2cc(-c3cccc4ccccc34)nc(N)n2)cc(-c2cccc3ccccc23)n1
2. C=CCn1c(-c2ccc(Cl)cc2Cl)csc1=Nc1c(C)n(C)n(-c2ccccc2)c1=O
3. O=S(=O)(NCCO)c1cc[c]([Sb](=[O])([OH])[OH])cc1
4. CCOC(=O)c1cn2c(ccc3sc4ccccc4c(=O)c32)n1
5. Cc1ccc(C)c2c(N=Nc3ccccc3[N+](=O)[O-])c(O)[nH]c12
6. O=[N+]([O-])c1ccc(O)c(C=NCC2CCCN3CCCCC23)c1 (centres undefined)
7. CC(OC(=O)N(N(CCCl)S(C)(=O)=O)S(C)(=O)=O)c1ccc([N+](=O)[O-])cc1 (centres undefined)
8. COc1ccccc1/C=C/c1nc2ccccc2o1

result:
> 100 µM
29.7 µM
> 100 µM
> 100 µM
> 100 µM
> 100 µM
> 100 µM
> 10 µM

All values here come from PubChem BioAssay (NCI).
